Measured Target: T1, human plasma kallikrein (human, UniProt P03952 20-390; P03952 391-638)
T1 construct: two disulfide-linked chains; also called pKal; human pKal
T1 sequence (P03952 20-390, chain 1 of 2): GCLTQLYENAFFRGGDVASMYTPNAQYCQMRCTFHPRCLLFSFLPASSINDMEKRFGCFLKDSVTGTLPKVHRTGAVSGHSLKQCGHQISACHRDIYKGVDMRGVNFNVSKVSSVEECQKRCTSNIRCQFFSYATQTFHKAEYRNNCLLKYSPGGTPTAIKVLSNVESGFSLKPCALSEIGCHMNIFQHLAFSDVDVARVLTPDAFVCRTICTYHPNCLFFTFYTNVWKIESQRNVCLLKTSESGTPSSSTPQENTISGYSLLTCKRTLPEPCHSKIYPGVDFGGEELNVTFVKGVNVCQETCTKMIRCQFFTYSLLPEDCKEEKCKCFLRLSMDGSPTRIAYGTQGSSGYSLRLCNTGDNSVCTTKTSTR
T1 sequence (P03952 391-638, chain 2 of 2): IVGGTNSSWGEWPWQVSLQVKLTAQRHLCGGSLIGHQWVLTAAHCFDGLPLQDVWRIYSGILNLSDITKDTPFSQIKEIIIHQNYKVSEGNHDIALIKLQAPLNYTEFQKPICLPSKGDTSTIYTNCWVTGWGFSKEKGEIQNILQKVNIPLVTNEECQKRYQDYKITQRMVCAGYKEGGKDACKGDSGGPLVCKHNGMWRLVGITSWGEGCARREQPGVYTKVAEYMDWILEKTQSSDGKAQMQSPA
Assay Details: Ki,app, inhibition of human pKal enzyme activity
pKi: −log10 of the molar value.
This listing pairs binders with measured pKi.
Property Measured: pKi

# Binder, Measured Number
rows = [
    ("M197-A09 (Fab, V domains shown, Tested as Fab; printed HC runs into CH1) VH: EVQLLESGGGLVQPGGSLRLSCAASGFTFSVYNMHWVRQAPGKGLEWVSSIYPSGGMTTYADSVKGRFTISRDNSKNTLYLQMNSLRAEDTAVYYCAYRRTGIPRRDAFDIWGQGTMVTVSS VL: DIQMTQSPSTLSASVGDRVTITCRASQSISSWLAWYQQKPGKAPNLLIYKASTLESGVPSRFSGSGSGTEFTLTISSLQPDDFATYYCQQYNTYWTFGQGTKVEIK", 9.22),
    ("M202-A12 (Fab, V domains shown, Tested as Fab; printed HC runs into CH1) VH: EVQLLESGGGLVQPGGSLRLSCAASGFTFSHYIMMWVRQAPGKGLEWVSGIYSSGGITVYADSVKGRFTISRDNSKNTLYLQMNSLRAEDTAVYYCAYQRTGVPRRDSFNIWGQGTMVTVSS VL: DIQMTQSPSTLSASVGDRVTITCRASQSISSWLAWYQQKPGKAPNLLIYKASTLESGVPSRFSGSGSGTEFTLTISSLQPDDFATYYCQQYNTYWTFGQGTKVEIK", 9.70),
    ("M198-F09 (Fab, V domains shown, Tested as Fab; printed HC runs into CH1) VH: EVQLLESGGGLVQPGGSLRLSCAASGFTFSVYNMHWVRQAPGKGLEWVSSIYPSGGMTYYADSVKGRFTISRDNSKNTLYLQMNSLRAEDTAVYYCAYRRTGIPRRDAFDIWGQGTMVTVSS VL: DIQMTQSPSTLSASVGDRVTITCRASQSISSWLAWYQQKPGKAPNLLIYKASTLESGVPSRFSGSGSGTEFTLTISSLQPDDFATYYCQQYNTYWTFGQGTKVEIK", 9.70),
    ("M202-C09 (Fab, V domains shown, Tested as Fab; printed HC runs into CH1) VH: EVQLLESGGGLVQPGGSLRLSCAASGFTFSHYIMMWVRQAPGKGLEWVSGIYSSGGITVYADSVKGRFTISRDNSKNTLYLQMNSLRAEDTAVYYCAYRRIGVPRRDDFDIWGQGTMVTVSS VL: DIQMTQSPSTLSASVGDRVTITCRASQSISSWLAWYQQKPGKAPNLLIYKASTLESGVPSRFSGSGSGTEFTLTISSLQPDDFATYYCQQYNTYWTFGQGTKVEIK", 9.52),
    ("M200-A10 (Fab, V domains shown, Tested as Fab; printed HC runs into CH1) VH: EVQLLESGGGLVQPGGSLRLSCAASGFTFSHYIMMWVRQAPGKGLEWVSGIYSSGGITVYADSVKGRFTISRDNSKNTLYLQMNSLRAEDTAVYYCAYRRTGVPRRDSFDIWGQGTMVTVSS VL: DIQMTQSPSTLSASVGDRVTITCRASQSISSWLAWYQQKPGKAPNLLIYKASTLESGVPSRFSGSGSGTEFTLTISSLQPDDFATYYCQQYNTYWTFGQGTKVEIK", 9.52),
    ("M202-C01 (Fab, V domains shown, Tested as Fab; printed HC runs into CH1) VH: EVQLLESGGGLVQPGGSLRLSCAASGFTFSHYIMMWVRQAPGKGLEWVSGIYSSGGITVYADSVKGRFTISRDNSKNTLYLQMNSLRAEDTAVYYCAYRRTGVPRWDDFDIWGQGTMVTVSS VL: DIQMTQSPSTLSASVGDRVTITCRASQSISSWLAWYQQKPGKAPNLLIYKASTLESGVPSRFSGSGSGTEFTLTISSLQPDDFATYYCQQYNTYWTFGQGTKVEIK", 10.00),
    ("M196-D12 (Fab, V domains shown, Tested as Fab; printed HC runs into CH1) VH: EVQLLESGGGLVQPGGSLRLSCAASGFTFSRYSMRWVRQAPGKGLEWVSVIYPSGGQTYYADSVKGRFTISRDNSKNTLYLQMNSLRAEDTAVYYCAYRRTGIPRRDAFDIWGQGTMVTVSS VL: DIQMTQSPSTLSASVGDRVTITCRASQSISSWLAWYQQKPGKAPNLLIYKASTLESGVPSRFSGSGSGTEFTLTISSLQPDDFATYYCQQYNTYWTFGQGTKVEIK", 9.70),
    ("M202-B03 (Fab, V domains shown, Tested as Fab; printed HC runs into CH1) VH: EVQLLESGGGLVQPGGSLRLSCAASGFTFSHYIMMWVRQAPGKGLEWVSGIYSSGGITVYADSVKGRFTISRDNSKNTLYLQMNSLRAEDTAVYYCAYRRTGVPRRDDFDIWGQGTMVTVSS VL: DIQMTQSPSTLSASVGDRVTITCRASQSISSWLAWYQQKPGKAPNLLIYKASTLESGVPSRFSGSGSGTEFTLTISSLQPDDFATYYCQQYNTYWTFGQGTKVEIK", 9.52),
    ("M200-D03 (Fab, V domains shown, Tested as Fab; printed HC runs into CH1) VH: EVQLLESGGGLVQPGGSLRLSCAASGFTFSHYIMMWVRQAPGKGLEWVSGIYSSGGITVYADSVKGRFTISRDNSKNTLYLQMNSLRAEDTAVYYCAWRRIGVPRRDSFDMWGQGTMVTVSS VL: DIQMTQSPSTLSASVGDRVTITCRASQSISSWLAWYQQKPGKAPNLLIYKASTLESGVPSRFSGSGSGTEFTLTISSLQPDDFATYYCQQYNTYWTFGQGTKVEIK", 10.00),
    ("M198-A06 (Fab, V domains shown, Tested as Fab; printed HC runs into CH1) VH: EVQLLESGGGLVQPGGSLRLSCAASGFTFSIYSMHWVRQAPGKGLEWVSSIYSSGGPTKYADSVKGRFTISRDNSKNTLYLQMNSLRAEDTAVYYCAYRRTGIPRRDAFDIWGQGTMVTVSS VL: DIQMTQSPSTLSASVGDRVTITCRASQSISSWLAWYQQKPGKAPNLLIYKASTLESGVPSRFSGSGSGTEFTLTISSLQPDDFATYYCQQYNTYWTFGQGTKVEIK", 9.40),
    ("M196-C06 (Fab, V domains shown, Tested as Fab; printed HC runs into CH1) VH: EVQLLESGGGLVQPGGSLRLSCAASGFTFSIYSMHWVRQAPGKGLEWVSSIYPSRGMTWYADSVKGRFTISRDNSKNTLYLQMNSLRAEDTAVYYCAYRRTGIPRRDAFDIWGQGTMVTVSS VL: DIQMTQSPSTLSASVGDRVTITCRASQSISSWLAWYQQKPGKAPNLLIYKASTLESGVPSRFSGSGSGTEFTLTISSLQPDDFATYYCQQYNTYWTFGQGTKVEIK", 10.00),
]
